# TARGET: UniProtKB P78527
# PROCEDURE DETAILS: DNA-PK/biochemical assay (FlashPlate kinase assay)
# PROTOCOL CONDITIONS: 5 μM ATP, 90 min, room temperature; read-out: Binding DNA-PK IC50
pIC50: −log10 of the molar value.
EXPERIMENTAL READOUT: pIC50

Some compounds with recorded pIC50:
NC(=O)C1CCCN(c2ncnc3cc(N4CCOCC4)ccc23)C1 (stereo not drawn) ... 6.00 to 6.30
COc1ccc(CC2CCCN(c3ncnc4cc(N5CCOCC5)ccc34)C2)cc1OC (stereo not drawn) ... 6.30 to 7.00
COc1cccc(CC2CCCN(c3ncnc4cc(N5CCOCC5)ccc34)C2)c1 (stereo not drawn) ... > 7.00

GET /values?readout=pIC50&item= c1ccc2sc(CC3CCCN(c4ncnc5cc(N6CCOCC6)ccc45)C3)nc2c1 (stereo not drawn)
6.30 to 7.00

GET /values?readout=pIC50&item= O=C(NC1CCCN(c2nc(Cl)nc3cc(N4CCOCC4)ccc23)C1)c1cncs1 (stereo not drawn)
> 7.00

GET /values?readout=pIC50&item= O=C(NC1CCCN(c2nc(Cl)nc3cc(N4CCOCC4)ccc23)C1)c1cscn1 (stereo not drawn)
6.30 to 7.00

* * *

# TARGET: DNA-PK (Homo sapiens (Human))
# PROCEDURE DETAILS: DNA-PK/biochemical assay (FlashPlate kinase assay)
# PROTOCOL CONDITIONS: 5 μM ATP, 90 min, room temperature; read-out: Binding DNA-PK IC50
EXPERIMENTAL READOUT: IC50

OC(c1nccs1)C1CCCN(c2ncnc3cc(N4CCOCC4)ccc23)C1 (stereo not drawn) ... < 100 nM
c1nc(N2CCCCC2)c2ccc(N3CCOCC3)cc2n1 ... < 100 nM
Clc1nc(N2CCCC(Cn3ccnc3)C2)c2ccc(N3CCOCC3)cc2n1 (stereo not drawn) ... < 100 nM
c1csc(CC2CCCN(c3ncnc4cc(N5CCOCC5)ccc34)C2)c1 (stereo not drawn) ... < 100 nM
c1nc(N2CCCC(CC3CCCCC3)C2)c2ccc(N3CCOCC3)cc2n1 (stereo not drawn) ... 500 to 1000 nM

Kindly state the measured IC50 obtained for O=C(NC1CCCN(c2nc(Cl)nc3cc(N4CCOCC4)ccc23)C1)c1nccs1 (stereo not drawn) with DNA-PK (Homo sapiens (Human)).
< 100 nM

* * *

# TARGET: UniProtKB P78527
# PROCEDURE DETAILS: DNA-PK/biochemical assay (FlashPlate kinase assay)
# PROTOCOL CONDITIONS: 5 μM ATP, 90 min, room temperature; read-out: Binding DNA-PK IC50
EXPERIMENTAL READOUT: IC50

Some compounds with recorded IC50:
c1ccc(C2CCCN(c3ncnc4cc(N5CCOCC5)ccc34)C2)cc1 (centres unmarked) ... < 100 nM
CCOCC1CCCN(c2ncnc3cc(N4CCOCC4)ccc23)C1 (centres unmarked) ... 100 to 500 nM
O[C@H](c1nccs1)C1CCCN(c2ncnc3cc(N4CCOCC4)ccc23)C1 (some centres unmarked) ... < 100 nM

GET /values?readout=IC50&item= OC(c1ccsc1)C1CCCN(c2ncnc3cc(N4CCOCC4)ccc23)C1 (centres unmarked)
< 100 nM

GET /values?readout=IC50&item= c1csc(C2CCCN(c3ncnc4cc(N5CCOCC5)ccc34)C2)c1 (centres unmarked)
< 100 nM

* * *

Entries and their pIC50
# TARGET: DNA-PK (Homo sapiens (Human), UniProt P78527)
# PROCEDURE DETAILS: DNA-PK/biochemical assay (FlashPlate kinase assay)
# PROTOCOL CONDITIONS: 5 μM ATP, 90 min, room temperature; read-out: Binding DNA-PK IC50
pIC50: −log10 of the molar value.

Some molecules with recorded pIC50:
FC(F)(F)c1cccc(C2CCCN(c3ncnc4cc(N5CCOCC5)ccc34)C2)c1 (stereo not drawn) ... 6.30 to 7.00
Clc1nc(N2CCCCC2)c2ccc(N3CCOCC3)cc2n1 ... > 7.00

GET /values?readout=pIC50&item= c1nc(N2CCCC(CN3CCOCC3)C2)c2ccc(N3CCOCC3)cc2n1 (stereo not drawn)
6.00 to 6.30

GET /values?readout=pIC50&item= c1cn(CC2CCCN(c3ncnc4cc(N5CCOCC5)ccc34)C2)cn1 (stereo not drawn)
> 7.00

* * *

# TARGET: UniProt P78527
# PROCEDURE DETAILS: DNA-PK/biochemical assay (FlashPlate kinase assay)
# PROTOCOL CONDITIONS: 5 μM ATP, 90 min, room temperature; read-out: Binding DNA-PK IC50
Entries and their IC50

Some compounds with recorded IC50:
O=C(NC1CCCN(c2nc(Cl)nc3cc(N4CCOCC4)ccc23)C1)c1cccs1 (centres unmarked) ... 100 to 500 nM
COc1nc(N2CCCCC2)c2ccc(N3CCOCC3)cc2n1 ... > 1000 nM
c1ccc2sc(C3CCCN(c4ncnc5cc(N6CCOCC6)ccc45)C3)nc2c1 (centres unmarked) ... < 100 nM
Nc1nc(N2CCCCC2)c2ccc(N3CCOCC3)cc2n1 ... 500 to 1000 nM

Here is another compound to look at.
GET /values?readout=IC50&item= c1ccc([C@@H]2CCCN(c3ncnc4cc(N5CCOCC5)ccc34)C2)cc1
100 to 500 nM

* * *

# TARGET: DNA-PK (Homo sapiens (Human))
# PROCEDURE DETAILS: DNA-PK/biochemical assay (FlashPlate kinase assay)
# PROTOCOL CONDITIONS: 5 μM ATP, 90 min, room temperature; read-out: Binding DNA-PK IC50
# Procedure: […] A non-specific reaction (blank value) was determined using 10 μM of a proprietary kinase inhibitor. The radioactivity measurement was carried out by means of a TopCount. IC50 values were calculated in RS1. • Literature: Kashishian et al. (2003) Molecular Cancer Therapeutics 1257.
pIC50: −log10 of the molar value.
EXPERIMENTAL READOUT: pIC50

Cc1cnc(CC2CCCN(c3ncnc4cc(N5CCOCC5)ccc34)C2)s1 (stereo not drawn) ... > 7.00
Cc1csc(C(O)C2CCCN(c3ncnc4cc(N5CCOCC5)ccc34)C2)n1 (stereo not drawn) ... > 7.00
OC1(c2ccccc2)CCCN(c2ncnc3cc(N4CCOCC4)ccc23)C1 (stereo not drawn) ... 6.00 to 6.30
Clc1nc(N2CCCC(Cc3nccs3)C2)c2ccc(N3CCOCC3)cc2n1 (stereo not drawn) ... > 7.00
c1nc(N2CCCC2)c2ccc(N3CCOCC3)cc2n1 ... 6.30 to 7.00
Cn1ccnc1CC1CCCN(c2ncnc3cc(N4CCOCC4)ccc23)C1 (stereo not drawn) ... > 7.00

GET /values?readout=pIC50&item= Cc1csc(CC2CCCN(c3ncnc4cc(N5CCOCC5)ccc34)C2)n1 (stereo not drawn)
> 7.00

GET /values?readout=pIC50&item= N#Cc1nc(N2CCCCC2)c2ccc(N3CCOCC3)cc2n1
6.30 to 7.00

GET /values?readout=pIC50&item= O=C(c1ccc(F)cc1)C1CCCN(c2ncnc3cc(N4CCOCC4)ccc23)C1 (stereo not drawn)
6.30 to 7.00

* * *

# TARGET: DNA-PK (Homo sapiens (Human))
# PROCEDURE DETAILS: DNA-PK/biochemical assay (FlashPlate kinase assay)
# PROTOCOL CONDITIONS: 5 μM ATP, 90 min, room temperature; read-out: Binding DNA-PK IC50
EXPERIMENTAL READOUT: IC50

Some molecules with recorded IC50:
C1=C(c2cccs2)CN(c2ncnc3cc(N4CCOCC4)ccc23)CC1 [compound 37] ... 100 to 500 nM
COc1ccc(C2CCCN(c3ncnc4cc(N5CCOCC5)ccc34)C2)cc1 (stereo not drawn) [compound 3] ... 100 to 500 nM

Here is another molecule to look at.
GET /values?readout=IC50&item= O=C(c1nccs1)C1CCCN(c2ncnc3cc(N4CCOCC4)ccc23)C1 (stereo not drawn) [compound 50]
< 100 nM

* * *

# TARGET: UniProt:P78527
# PROCEDURE DETAILS: DNA-PK/biochemical assay (FlashPlate kinase assay)
# PROTOCOL CONDITIONS: 5 μM ATP, 90 min, room temperature; read-out: Binding DNA-PK IC50
pIC50: −log10 of the molar value.
EXPERIMENTAL READOUT: pIC50

Some compounds with recorded pIC50:
c1nc(N2CCCCCC2)c2ccc(N3CCOCC3)cc2n1 [compound 8] ... 6.30 to 7.00
c1cnc(CC2CCCN(c3ncnc4cc(N5CCOCC5)ccc34)C2)nc1 (centres unmarked) [compound 31] ... > 7.00
c1ccc2[nH]c(C3CCCN(c4ncnc5cc(N6CCOCC6)ccc45)C3)nc2c1 (centres unmarked) [compound 24] ... 6.00 to 6.30
c1ccn(CC2CCCN(c3ncnc4cc(N5CCOCC5)ccc34)C2)c1 (centres unmarked) [compound 13] ... > 7.00

GET /values?readout=pIC50&item= Cn1ccnc1C(O)C1CCCN(c2ncnc3cc(N4CCOCC4)ccc23)C1 (centres unmarked) [compound 55]
6.30 to 7.00
